- Tested on: DAPK1;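 note: KINOMEscan kinase panel screen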
- EXPERIMENTAL CONDITIONS: concentration: 1 μM, replicates: in singlicate; n = 1
Binarize %Inh at 5%; below is yes, at or above is no.

Look over these answered cases.
Prompt line: In the record for "CC(C)N1CCC(n2cnc(-c3ccc(F)cc3)c2-c2ccnc(N)n2)CC1" , is %Inh less than 5%?
Response line: no

Prompt line: Okay, and "Fc1cccc(COc2ccc(Nc3ncnc4cc[nH]c34)cc2Cl)c1" ?
Response line: no

Prompt line: Okay, and "C[C@@H]1CCN(C(=O)CO)C[C@@H]1N(C)c1ncnc2[nH]ccc12" ?
Response line: yes

Continue with the next molecule.
Prompt line: In the record for "CN1CCC(n2cnc(-c3ccc(F)cc3)c2-c2ccnc(NC3CCNCC3)n2)CC1" , is %Inh less than 5%?
Response line: no
